Assign RU max to each entry below.
Biological target: canine IL-4RA (construct not given) (canine)
Test: SPR, IL-4RA immobilised, periplasmic Fab
Report as: number unit

// query Would you kindly share the measured RU max for FJ2246MP06C02 (Fab, V domains shown) VH: EVQLVESGGDLVKPGGSLRLSCVASGFTFRDYAMTWVRQAPGKGLQWVSLINGDGSKVYYADAVKGRFTISRDNAKNTLYLQMNSLRAEDTAVYYCAVDRLTKTIRPQYYGLWVWGQGTLVTVSS VL: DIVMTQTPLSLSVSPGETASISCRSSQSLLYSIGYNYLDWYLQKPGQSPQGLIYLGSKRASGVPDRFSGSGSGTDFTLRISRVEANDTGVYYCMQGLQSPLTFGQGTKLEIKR ?
// result 272 RU

// query Subsequent entry: FJ2246MP07A09 (Fab, V domains shown) VH: EVQLVESGGDLVKPGGSLRLSCVASGFTFRDYAMTWVRQAPGKGLQWVSLINGSGGKTYYADAVKGRFTISRDNAKNTLYLQMNSLRAEDTAVYYCAVDRLTKTIRPQYYGMWSWGQGTLVTVSS VL: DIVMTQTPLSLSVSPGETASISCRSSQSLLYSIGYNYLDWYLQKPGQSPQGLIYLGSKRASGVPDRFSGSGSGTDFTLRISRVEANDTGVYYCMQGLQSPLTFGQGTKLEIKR
// result 252 RU

// query Subsequent entry: FJ2246MP06D12 (Fab, V domains shown) VH: EVQLVESGGDLVKPGGSLRLSCVASGFTFRDYAMTWVRQAPGKGLQWVSLINGNSGKTYYADAVKGRFTISRDNAKNTLYLQMNSLRAEDTAVYYCAVDRLTKTIRPQYYGLWVWGQGTLVTVSS VL: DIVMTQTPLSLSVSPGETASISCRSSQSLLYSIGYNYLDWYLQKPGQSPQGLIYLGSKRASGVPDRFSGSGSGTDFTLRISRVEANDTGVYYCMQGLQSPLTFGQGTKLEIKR
// result 154 RU

// query Subsequent entry: FJ2246MP05A03 (Fab, V domains shown) VH: EVQLVESGGDLVKPGGSLRLSCVASGLPFRDYAMAWVRQAPGKGLQWVSLISGSGGKTYYADAVKGRFTISRDNAKNTLYLQMNSLRAEDTAVYYCAVDRLTKTIRPQYYGLWVWGQGTLVTVSS VL: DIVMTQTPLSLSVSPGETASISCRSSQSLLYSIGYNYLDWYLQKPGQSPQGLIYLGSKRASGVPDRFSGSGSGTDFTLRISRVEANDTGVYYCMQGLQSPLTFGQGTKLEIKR
// result 400 RU

Alright, here's another binder for you.
// query Would you kindly share the measured RU max for FJ2246MP06C10 (Fab, V domains shown) VH: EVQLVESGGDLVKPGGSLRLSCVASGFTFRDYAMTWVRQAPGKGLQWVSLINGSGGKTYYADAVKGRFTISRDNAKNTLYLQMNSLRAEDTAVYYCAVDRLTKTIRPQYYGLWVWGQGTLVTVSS VL: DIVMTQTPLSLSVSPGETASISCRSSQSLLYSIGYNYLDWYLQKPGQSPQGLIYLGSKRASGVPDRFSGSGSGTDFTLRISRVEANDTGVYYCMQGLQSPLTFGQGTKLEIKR ?
// result 135 RU
